Hello, the source for this data is patent US20220040297A1, in case you need it.

TARGET_OF_ASSAY: CD3ε homodimer protein (human, UniProt P07766 23-126, limits assumed)
Sequence (P07766 23-126 limits assumed): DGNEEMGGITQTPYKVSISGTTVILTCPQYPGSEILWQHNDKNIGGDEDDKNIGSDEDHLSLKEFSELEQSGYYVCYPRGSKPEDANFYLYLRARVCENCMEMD
ASSAY_REMARKS: SPR, immobilized CD3ε homodimer;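 further: biacore T200 surface plasmon resonance at 25 °C, antibody variants flowed as analytes over amine-coupled CD3ε homodimer on a CM4 chip, variant binding amount divided by that of GLS3000 antibody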
RECORDED_ENDPOINT: ratio of amounts bound (vs GLS3000)

[
  {
    "BINDER": "GLS3000 R29V (antibody, name in Kabat numbering, V domains shown, one-arm format as m2) VH: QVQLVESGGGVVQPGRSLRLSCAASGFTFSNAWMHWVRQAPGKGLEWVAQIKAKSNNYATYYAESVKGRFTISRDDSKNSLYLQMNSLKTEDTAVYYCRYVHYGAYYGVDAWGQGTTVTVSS VL: DIVMTQSPLSLPVTPGEPASISCRSSQSLVHSNVNTYLHWYQQKPGQAPRLLIYKVSNRFSGVPDRFSGSGSGTDFTLKISRVEAEDVGVYYCGQGTQVPYTFGQGTKLEIK",
    "RECORDED_ENDPOINT": "ratio of amounts bound (vs GLS3000)",
    "DATA_VALUE": 0.34
  },
  {
    "BINDER": "GLS3000 N28W (antibody, name in Kabat numbering, V domains shown, one-arm format as m2) VH: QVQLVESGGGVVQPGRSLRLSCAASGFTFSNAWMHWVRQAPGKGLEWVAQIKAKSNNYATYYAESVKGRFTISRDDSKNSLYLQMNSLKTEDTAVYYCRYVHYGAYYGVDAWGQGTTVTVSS VL: DIVMTQSPLSLPVTPGEPASISCRSSQSLVHSWRNTYLHWYQQKPGQAPRLLIYKVSNRFSGVPDRFSGSGSGTDFTLKISRVEAEDVGVYYCGQGTQVPYTFGQGTKLEIK",
    "RECORDED_ENDPOINT": "ratio of amounts bound (vs GLS3000)",
    "DATA_VALUE": 0.41
  },
  {
    "BINDER": "GLS3000 V94M (antibody, name in Kabat numbering, V domains shown, one-arm format as m2) VH: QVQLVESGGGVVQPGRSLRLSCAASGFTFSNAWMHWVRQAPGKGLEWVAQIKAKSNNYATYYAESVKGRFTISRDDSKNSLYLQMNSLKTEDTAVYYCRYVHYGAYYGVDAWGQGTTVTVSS VL: DIVMTQSPLSLPVTPGEPASISCRSSQSLVHSNRNTYLHWYQQKPGQAPRLLIYKVSNRFSGVPDRFSGSGSGTDFTLKISRVEAEDVGVYYCGQGTQMPYTFGQGTKLEIK",
    "RECORDED_ENDPOINT": "ratio of amounts bound (vs GLS3000)",
    "DATA_VALUE": 0.44
  },
  {
    "BINDER": "GLS3000 S56A (antibody, name in Kabat numbering, V domains shown, one-arm format as m2) VH: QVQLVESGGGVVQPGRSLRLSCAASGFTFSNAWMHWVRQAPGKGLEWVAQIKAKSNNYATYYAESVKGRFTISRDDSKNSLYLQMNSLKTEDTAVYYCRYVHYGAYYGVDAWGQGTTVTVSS VL: DIVMTQSPLSLPVTPGEPASISCRSSQSLVHSNRNTYLHWYQQKPGQAPRLLIYKVSNRFAGVPDRFSGSGSGTDFTLKISRVEAEDVGVYYCGQGTQVPYTFGQGTKLEIK",
    "RECORDED_ENDPOINT": "ratio of amounts bound (vs GLS3000)",
    "DATA_VALUE": 1.16
  },
  {
    "BINDER": "GLS3000 L27bI (antibody, name in Kabat numbering, V domains shown, one-arm format as m2) VH: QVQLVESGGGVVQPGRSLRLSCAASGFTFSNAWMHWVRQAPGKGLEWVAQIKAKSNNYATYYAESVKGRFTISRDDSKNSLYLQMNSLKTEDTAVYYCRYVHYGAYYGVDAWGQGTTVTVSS VL: DIVMTQSPLSLPVTPGEPASISCRSSQSIVHSNRNTYLHWYQQKPGQAPRLLIYKVSNRFSGVPDRFSGSGSGTDFTLKISRVEAEDVGVYYCGQGTQVPYTFGQGTKLEIK",
    "RECORDED_ENDPOINT": "ratio of amounts bound (vs GLS3000)",
    "DATA_VALUE": 1.19
  }
]
